- Test system: control sera (pooled serum of ten healthy LUMC hospital workers; commercial negative donor pooled serum from the Dutch bloodbank)
- Type: binding, human
Collected Binding of Control serum LUMC to looped peptides values appear next to each entry.
ASSAY_ENDPOINT: Binding of Control serum LUMC to looped peptides

biosequence=FVVFLLVTLAILTAL observed_measurement=0.6
biosequence=VTLAILTALRLCAYC observed_measurement=0.8
biosequence=TLIVNSVLLFLAFVV observed_measurement=0.8
biosequence=LLFLAFVVFLLVTLA observed_measurement=0.7
biosequence=SVLLFLAFVVFLLVT observed_measurement=0.7
biosequence=VVFLLVTLAILTALR observed_measurement=0.6
biosequence=MYSFVSEETGTLIVN observed_measurement=0.8

---

- Test system: antibodies in sera from SARS patients (sera 1a, 1b, 2, 6, 37, 62, London, SARS-yellow, SARS-green)
- Type: binding, human
ASSAY_ENDPOINT: Binding of serum SARS-yellow to looped/cyclic peptides of protein E of SARS-CoV Urbani

biosequence=SVLLFLAFVVFLLVT observed_measurement=0.6
biosequence=VVFLLVTLAILTALR observed_measurement=0.5
biosequence=VTLAILTALRLCAYC observed_measurement=0.7
biosequence=TLIVNSVLLFLAFVV observed_measurement=0.6

---

Below is a list of entries, each paired with its recorded Binding of serum London to linear peptides of protein E of SARS-CoV Urbani value.
- System: antibodies in sera from SARS patients (sera 1a, 1b, 2, 6, 37, 62, London, SARS-yellow, SARS-green)
- Type: binding, human
ASSAY_ENDPOINT: Binding of serum London to linear peptides of protein E of SARS-CoV Urbani

biosequence=TALRLCAYCCNIVNV observed_measurement=0.5
biosequence=MYSFVSEETGTLIVN observed_measurement=0.6
biosequence=NSVLLFLAFVVFLLV observed_measurement=0.6
biosequence=GTLIVNSVLLFLAFV observed_measurement=0.5
biosequence=RLCAYCCNIVNVSLV observed_measurement=0.5
biosequence=VNSVLLFLAFVVFLL observed_measurement=1.4
biosequence=FVVFLLVTLAILTAL observed_measurement=0.5
biosequence=LLFLAFVVFLLVTLA observed_measurement=0.5

---

- Tested on: rabbit serum obtained by immunizing a rabbit with the SARS-CoV strain Frankfurt 1
- Type: binding
- Parameters: unit not given here
# if value of Binding of a rabbit serum to looped peptides reaches 0.2, tag condition met; if it stays below, tag condition not met

biosequence=LIVNSVLLFLAFVVF tested_system="rabbit serum obtained by immunizing a rabbit with the SARS-CoV strain Frankfurt 1" assigned_category="condition met"
biosequence=ETGTLIVNSVLLFLA tested_system="rabbit serum obtained by immunizing a rabbit with the SARS-CoV strain Frankfurt 1" assigned_category="condition not met"
biosequence=VTLAILTALRLCAYC tested_system="rabbit serum obtained by immunizing a rabbit with the SARS-CoV strain Frankfurt 1" assigned_category="condition met"
biosequence=NSVLLFLAFVVFLLV tested_system="rabbit serum obtained by immunizing a rabbit with the SARS-CoV strain Frankfurt 1" assigned_category="condition met"
biosequence=VNSVLLFLAFVVFLL tested_system="rabbit serum obtained by immunizing a rabbit with the SARS-CoV strain Frankfurt 1" assigned_category="condition met"
biosequence=AILTALRLCAYCCNI tested_system="rabbit serum obtained by immunizing a rabbit with the SARS-CoV strain Frankfurt 1" assigned_category="condition met"
biosequence=TALRLCAYCCNIVNV tested_system="rabbit serum obtained by immunizing a rabbit with the SARS-CoV strain Frankfurt 1" assigned_category="condition met"
biosequence=GTLIVNSVLLFLAFV tested_system="rabbit serum obtained by immunizing a rabbit with the SARS-CoV strain Frankfurt 1" assigned_category="condition not met"
biosequence=LLFLAFVVFLLVTLA tested_system="rabbit serum obtained by immunizing a rabbit with the SARS-CoV strain Frankfurt 1" assigned_category="condition met"
biosequence=TLIVNSVLLFLAFVV tested_system="rabbit serum obtained by immunizing a rabbit with the SARS-CoV strain Frankfurt 1" assigned_category="condition met"

---

- Tested on: antibodies in sera from SARS patients (sera 1a, 1b, 2, 6, 37, 62, London, SARS-yellow, SARS-green)
- Format: binding, human
ASSAY_ENDPOINT: Binding of serum 62 to linear peptides of protein E of SARS-CoV Urbani

biosequence=RLCAYCCNIVNVSLV observed_measurement=0.4
biosequence=TLIVNSVLLFLAFVV observed_measurement=0.3
biosequence=MYSFVSEETGTLIVN observed_measurement=0.8
biosequence=AILTALRLCAYCCNI observed_measurement=0.4

---

- Tested on: antibodies in sera from SARS patients (sera 1a, 1b, 2, 6, 37, 62, London, SARS-yellow, SARS-green)
- Assay type: binding, human
In this section we review reported Binding of serum 37 to looped/cyclic peptides of protein E of SARS-CoV Urbani values for a set of sequences.
ASSAY_ENDPOINT: Binding of serum 37 to looped/cyclic peptides of protein E of SARS-CoV Urbani

biosequence=LLFLAFVVFLLVTLA observed_measurement=0.7
biosequence=TLIVNSVLLFLAFVV observed_measurement=0.7
biosequence=VVFLLVTLAILTALR observed_measurement=0.4
biosequence=TALRLCAYCCNIVNV observed_measurement=0.7
biosequence=LIVNSVLLFLAFVVF observed_measurement=0.5

---

- Tested on: antibodies in sera from SARS patients (sera 1a, 1b, 2, 6, 37, 62, London, SARS-yellow, SARS-green)
- Format: binding, human
ASSAY_ENDPOINT: Binding of serum 2 to looped/cyclic peptides of protein E of SARS-CoV Urbani

biosequence=VNSVLLFLAFVVFLL observed_measurement=0.5
biosequence=VTLAILTALRLCAYC observed_measurement=0.9
biosequence=MYSFVSEETGTLIVN observed_measurement=0.6
biosequence=RLCAYCCNIVNVSLV observed_measurement=0.7
biosequence=TALRLCAYCCNIVNV observed_measurement=0.8
biosequence=ETGTLIVNSVLLFLA observed_measurement=0.5
biosequence=LLFLAFVVFLLVTLA observed_measurement=0.6
biosequence=VVFLLVTLAILTALR observed_measurement=0.5
biosequence=NSVLLFLAFVVFLLV observed_measurement=0.6
biosequence=SVLLFLAFVVFLLVT observed_measurement=0.5

---

- Test system: rabbit serum obtained by immunizing a rabbit with the SARS-CoV strain Frankfurt 1
- Format: binding
- Parameters: unit not given here
ASSAY_ENDPOINT: Binding of a rabbit serum to linear peptides

biosequence=ETGTLIVNSVLLFLA observed_measurement=0.3
biosequence=VNSVLLFLAFVVFLL observed_measurement=0.2
biosequence=VTLAILTALRLCAYC observed_measurement=0.1
biosequence=TALRLCAYCCNIVNV observed_measurement=0.2
biosequence=RLCAYCCNIVNVSLV observed_measurement=0.4
biosequence=VVFLLVTLAILTALR observed_measurement=0.5
biosequence=FVVFLLVTLAILTAL observed_measurement=0.2
biosequence=MYSFVSEETGTLIVN observed_measurement=0.5
biosequence=TLIVNSVLLFLAFVV observed_measurement=0.1
biosequence=SVLLFLAFVVFLLVT observed_measurement=0.6
biosequence=FLAFVVFLLVTLAIL observed_measurement=0.0
biosequence=NSVLLFLAFVVFLLV observed_measurement=0.6
biosequence=LLFLAFVVFLLVTLA observed_measurement=0.6
biosequence=GTLIVNSVLLFLAFV observed_measurement=0.6
biosequence=LIVNSVLLFLAFVVF observed_measurement=0.5
biosequence=AILTALRLCAYCCNI observed_measurement=0.2

---

- Test system: antibodies in sera from SARS patients (sera 1a, 1b, 2, 6, 37, 62, London, SARS-yellow, SARS-green)
- Type: binding, human
ASSAY_ENDPOINT: Binding of serum 1b to looped/cyclic peptides of protein E of SARS-CoV Urbani

biosequence=VVFLLVTLAILTALR observed_measurement=0.3
biosequence=TLIVNSVLLFLAFVV observed_measurement=0.5
biosequence=RLCAYCCNIVNVSLV observed_measurement=0.7
biosequence=AILTALRLCAYCCNI observed_measurement=0.6

---

In this section we review reported Binding of serum 1a to looped/cyclic peptides of protein E of SARS-CoV Urbani values for a set of sequences.
- Test system: antibodies in sera from SARS patients (sera 1a, 1b, 2, 6, 37, 62, London, SARS-yellow, SARS-green)
- Format: binding, human
ASSAY_ENDPOINT: Binding of serum 1a to looped/cyclic peptides of protein E of SARS-CoV Urbani

biosequence=TALRLCAYCCNIVNV observed_measurement=0.7
biosequence=GTLIVNSVLLFLAFV observed_measurement=0.2
biosequence=VTLAILTALRLCAYC observed_measurement=0.7
biosequence=TLIVNSVLLFLAFVV observed_measurement=0.6
biosequence=ETGTLIVNSVLLFLA observed_measurement=0.5
biosequence=SVLLFLAFVVFLLVT observed_measurement=0.6

---

- System: antibodies in sera from SARS patients (sera 1a, 1b, 2, 6, 37, 62, London, SARS-yellow, SARS-green)
- Type: binding, human
ASSAY_ENDPOINT: Binding of serum SARS-green to linear peptides of protein E of SARS-CoV Urbani

biosequence=TALRLCAYCCNIVNV observed_measurement=0.6
biosequence=NSVLLFLAFVVFLLV observed_measurement=0.3
biosequence=LLFLAFVVFLLVTLA observed_measurement=0.4
biosequence=MYSFVSEETGTLIVN observed_measurement=0.6
biosequence=GTLIVNSVLLFLAFV observed_measurement=0.4
